Consider the following variants and their measured self-cleavage readings.
B1: Hairpin Ribozyme (parent)
chain: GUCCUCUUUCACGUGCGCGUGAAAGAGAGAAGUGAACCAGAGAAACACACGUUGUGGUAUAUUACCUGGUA

variants of: B1; assay: self-cleavage, relative activity (ratio to wild type); higher = more cleavage; co-transcriptional
ATTRIBUTE_MEASURED: self-cleavage

GUCCUCUUUCGCGUGCGCGUGAAAGAGACAAGUGAACCAGAGAAACACACGUUGUGGUAUAUUACCUGGUA [A11G G29C]
0.177
GUCCUCUUUCACGUGCGCGUGAAAGAGAGAAGUGAACCAGAGAAACACACGUUGUGGUGUAUUACCUGCUA [A59G G69C]
0.161
GUCCUCUUGCACGCGCGCGUGAAAGAGAGAAGUGAACCAGAGAAACACACGUUGUGGUAUAUUACCUGGUA [U9G U14C]
0.831

// provenance: the RNAGym collection of RNA variant scans (doi:10.7554/elife.80360)
